A compilation of Ki values for Rho-associated protein kinase 1 (Homo sapiens, UniProt Q13464) from the published literature.

Below are worked cases with known answers.
Smiles representation: Cc1c[nH]c2nccc(Oc3ccc(C[C@H](N)C(=O)N4CC(N(C)C)C4)cc3F)c12
Ki: < 3 nM
//
Smiles representation: C[C@H](Nc1nc(-c2c[nH]c3ncc(Cl)cc23)ncc1F)C(=O)NCCO
Ki: 500 to 5000 nM
//
Smiles representation: Cc1c[nH]c2nccc(Oc3ccc(C[C@H](N)C(=O)N[C@@H]4CCN(C)C4)cc3F)c12
Ki: < 3 nM

Provide value of Ki for this record tested with Rho-associated protein kinase 1 (Homo sapiens, UniProt Q13464): `Cc1c[nH]c2nccc(Oc3ccc(C[C@H](N)C(=O)NCCCN(C)C)cc3F)c12`
< 3 nM

###

The following molecules were reported with pKi values on Rho-associated protein kinase 1 (Homo sapiens, UniProt Q13464) in different studies.
pKi: −log10 of the molar value.

Solved cases below.
Molecule: CC(C)NC(=O)[C@H](C)Nc1nc(-c2c[nH]c3ncc(Cl)cc23)ncc1F
pKi: 5.30 to 6.30
--
Molecule: CNc1cccc(-c2c[nH]c3ncc(-c4ccccc4)cc23)n1
pKi: > 6.30
--
Molecule: Cc1c[nH]c2nccc(Oc3ccc(C[C@H](N)C(=O)NC4(C(=O)NCCO)CCCCC4)cc3F)c12
pKi: > 8.52
--
Molecule: Cc1c[nH]c2nccc(Oc3ccc(C[C@H](N)C(=O)N4CCN(C)C(C)(C)C4)cc3F)c12
pKi: > 8.52
--
Molecule: O=C(Cc1ccc(F)cc1)Nc1nnc(-c2c[nH]c3ncccc23)s1
pKi: > 6.30

Please give the measured pKi for this molecule: `Cc1c[nH]c2nccc(Oc3ccc(C[C@H](N)C(=O)N4C[C@@H](C)N(Cc5ccccc5)[C@@H](C)C4)cc3F)c12`
> 8.52

`O=C(Cc1cccc(O)c1)Nc1cc(-c2ccnc(F)c2)cs1` , same question.
> 7.00

What about this molecule? CC1=C(C(=O)Nc2ccc3cnccc3c2)C(C23CC4CC(CC(C4)C2)C3)n2nc(CO)cc2N1 (stereo not drawn)
6.30 to 7.30

Please answer likewise for `COC(=O)Nc1cccc(-c2c[nH]c3ncc(Cl)cc23)n1`
5.30 to 6.30

###

pKi: −log10 of the molar value.
Compiled from multiple publications: pKi readings for Rho-associated protein kinase 1 (Homo sapiens).

Example cases with answers are listed next.
Molecule: Cc1c[nH]c2nccc(Oc3ccc(C[C@H](N)C(=O)N4CCC(Oc5cccnc5)CC4)cc3F)c12
pKi: > 8.52
--
Molecule: Cc1c[nH]c2nccc(Oc3ccc(C[C@H](N)C(=O)N4CC5(CNC5)C4)cc3F)c12
pKi: > 8.52
--
Molecule: Cc1c[nH]c2ncnc(Oc3ccc(C[C@H](N)C(=O)NCCCN(C)C)cc3F)c12
pKi: 7.52 to 8.52
--
Molecule: CC1=C(C(=O)Nc2ccc3cnccc3c2)C(c2ccc(C(F)(F)F)c(F)c2)n2nc(NC(=O)COC3CCN(C)CC3)cc2N1 (stereo not shown)
pKi: > 7.30
--
Molecule: CC1=C(C(=O)Nc2ccc3cnccc3c2)C(c2ccc(C(F)(F)F)c(F)c2)n2nc(NC(=O)CN3CCCC3)cc2N1 (stereo not shown)
pKi: > 7.30
--
Molecule: O=C(Cc1cccc(S(=O)(=O)N2CCOCC2)c1)Nc1nc(-c2c[nH]c3ncc(Cl)cc23)cs1
pKi: > 6.30
--
Molecule: Cc1c[nH]c2ncnc(Oc3ccc(C[C@H](N)C(=O)N4CCC(O)(Cc5ccccc5)CC4)cc3F)c12
pKi: > 8.52
--
Molecule: N[C@H](Cc1ccc(Oc2ccnc3[nH]ccc23)cc1)C(=O)NC1CCCCC1
pKi: < 7.52
--
Molecule: O=C(Nc1cc(-c2c[nH]c3nccc(Oc4ccc5c(c4)CNCC5)c23)ccn1)C1CC1
pKi: 7.52 to 8.52
--
Molecule: O=C(Cc1ccc(F)cc1F)N(c1nc(-c2c[nH]c3ncccc23)cs1)C1CC1
pKi: > 6.30

Find the recorded pKi belonging to `COCc1c[nH]c2nccc(Oc3ccc(C[C@H](N)C(=O)NC4CCOCC4)cc3F)c12` and report it.
7.52 to 8.52

Continue with `Clc1cnc2[nH]cc(-c3cccc(NCCc4ccccc4)n3)c2c1`
5.30 to 6.30

Let us now turn to `CC(C)CN(C)c1cccc(-c2c[nH]c3ncc(Cl)cc23)n1`
5.30 to 6.30

Another: `O=C(Cc1cccc(S(=O)(=O)NCCCN2CCOCC2)c1)Nc1nc(-c2c[nH]c3ncccc23)cs1`
> 6.30

Same again, this time with `Cc1c[nH]c2nccc(Oc3ccc(C[C@H](N)C(=O)NC4CCOCC4)cc3F)c12`
> 8.52

Field entry: `Clc1cnc2[nH]cc(-c3ccccn3)c2c1`
5.30 to 6.30

###

pKi for Rho-associated protein kinase 1 (Homo sapiens, UniProt Q13464) - collated from the literature.
pKi: −log10 of the molar value.

I'd like to know its pKi. The compound in question is CC1=C(C(=O)Nc2ccc3cnccc3c2)C(c2ccc(C(F)(F)F)c(F)c2)n2nc(CN3CCC(N4CCCC4)CC3)cc2N1 (centres unmarked)
> 7.30

Same question, `C[C@H](Nc1nc(-c2c[nH]c3ncc(C#CCO)cc23)ncc1F)c1ccc(F)cc1` this time
5.30 to 6.30

Input `Cc1c[nH]c2ncnc(Oc3ccc(C[C@H](N)C(=O)N4CCC(S(=O)(=O)c5ccc(F)cc5)CC4)cc3F)c12`
> 8.52

And `OC[C@@H](Nc1cccc(-c2c[nH]c3ncc(Cl)cc23)n1)c1ccccc1` ?
5.30 to 6.30

What do you have for `O=Cc1ccc(-c2c[nH]c3ncc(-c4ccccc4)cc23)cc1` ?
5.30 to 6.30

Okay, and Cc1c[nH]c2nccc(Oc3ccc(CC(N)C(=O)N4CCN(c5ccccn5)CC4)cc3F)c12 (centres unmarked) ?
> 8.52

Now the same for CC1=C(C(=O)Nc2ccc3[nH]ncc3c2)C(c2ccc(Cl)nc2)n2nc(CO)cc2N1 (centres unmarked)
> 7.30

Could you do the same for `COC(=O)N1CCCN(c2cccc(-c3c[nH]c4ncc(Cl)cc34)n2)CC1` , please?
5.30 to 6.30

###

Note to self: these compounds have Ki reported for Rho-associated protein kinase 1 (Homo sapiens) in various publications.

Known results for compounds:
Compound: N[C@@H](Cc1ccc(Oc2ccnc3[nH]ccc23)c(F)c1)C(=O)Nc1ccccc1
Ki: 3 to 30 nM

Compound: C[C@H](Nc1nc(-c2c[nH]c3ncc(Cl)cc23)ncc1F)C(=O)NCCn1cccc1
Ki: 500 to 5000 nM

Compound: CC1=C(C(=O)Nc2ccc3cnccc3c2)C(c2ccc(C)cc2)n2nc(CO)cc2N1 (centres unmarked)
Ki: < 50 nM

Compound: CN(Cc1ccccc1)C(=O)[C@@H](N)Cc1ccc(Oc2ccnc3[nH]ccc23)cc1
Ki: 3 to 30 nM

Compound: O=C(Nc1cccc(-c2c[nH]c3ncc(Cl)cc23)n1)OCc1ccccc1
Ki: 500 to 5000 nM

Name the reported Ki value associated with the compound `CN(Cc1ccccc1)C(=O)[C@H](N)Cc1ccc(Oc2ccnc3[nH]ccc23)cc1`
> 30 nM

Subsequent entry: `COc1cccc(CC(=O)Nc2ccc(-c3c[nH]c4ncccc34)s2)c1`
< 500 nM

Follow-up item: `CC(=O)N1[C@H](C)CN(c2nc(-c3c[nH]c4ncc(Cl)cc34)cs2)C[C@@H]1C`
500 to 5000 nM

###

Compiled literature Ki, tested on Rho-associated protein kinase 1 (Homo sapiens, UniProt Q13464).

Answered examples (10):
Molecule: N[C@@H](Cc1ccc(Oc2ccnc3[nH]ccc23)cn1)C(=O)NC1CCCCC1
Ki: > 30 nM
//
Molecule: CN(C)C(Cc1ccc(Oc2ccnc3[nH]ccc23)cc1)C(=O)NC1CCCCC1 (stereo not drawn)
Ki: > 30 nM
//
Molecule: Cc1c[nH]c2nccc(Oc3ccc(C[C@H](N)C(=O)NC4CCOCC4)cc3)c12
Ki: < 3 nM
//
Molecule: Cc1cc(-c2c[nH]c3ncc(Cl)cc23)c2ccccc2n1
Ki: 500 to 5000 nM
//
Molecule: CCNc1cc(-c2csc(NC(=O)Cc3cc4c(cc3Cl)OCO4)n2)ccn1
Ki: 100 to 1000 nM
//
Molecule: Cc1c[nH]c2nccc(Oc3ccc(CC(CN)C(=O)NC4CCN(C)CC4)cc3F)c12 (stereo not drawn)
Ki: < 3 nM
//
Molecule: Fc1cnc(-c2c[nH]c3ncc(Cl)cc23)nc1NCC1CCCNC1 (stereo not drawn)
Ki: < 500 nM
//
Molecule: O=C(Cc1cccc(S(=O)(=O)N2CCOCC2)c1)Nc1cc(-c2ccnc(F)c2)cs1
Ki: 100 to 1000 nM
//
Molecule: Fc1cnc(-c2c[nH]c3ncc(Cl)cc23)nc1NC1CCCNC1 (stereo not drawn)
Ki: < 500 nM
//
Molecule: CC1=C(C(=O)Nc2ccc3cnccc3c2)C(c2ccc(C(F)(F)F)c(F)c2)n2nc(CCN(C)C)cc2N1 (stereo not drawn)
Ki: < 50 nM

For `O=C(Cc1ccc(OCCCN2CCNCC2)cc1Cl)Nc1cc(-c2ccnc(Cl)c2)cs1` , what is its reported Ki?
< 100 nM

Now consider `C[C@H](Nc1nc(-c2c[nH]c3ncc(Cl)cc23)ncc1F)c1cccc(N)c1` and answer again.
500 to 5000 nM

Continue with `Cc1c[nH]c2nccc(Oc3ccc(C[C@H](N)C(=O)N4CCN(C(=O)c5nccs5)CC4)cc3F)c12`
< 3 nM

Then `CS(=O)(=O)Nc1ccc(F)c(CC(=O)Nc2cc(-c3ccnc(N)c3)cs2)c1` ?
< 100 nM

Also, `Cc1c[nH]c2nccc(Oc3ccc(C[C@H](N)C(=O)N4CC=C(c5ccccc5)CC4)cc3F)c12` please.
< 3 nM

Same read-out for Cc1noc(C2CCN(C(=O)[C@@H](N)Cc3ccc(Oc4ccnc5[nH]cc(C)c45)c(F)c3)C2)n1 (stereo partly drawn) ?
< 3 nM

Field entry: `O=C(Cc1cccc(S(=O)(=O)N[C@H]2CCOC2)c1)Nc1nc(-c2c[nH]c3ncccc23)cs1`
< 500 nM

Quick one: `Cc1c[nH]c2ncnc(Oc3ccc(C[C@H](N)C(=O)NC4CCN(C)CC4)cc3F)c12`
3 to 30 nM

Then this molecule: `NC(=O)c1ccc(-c2c[nH]c3ncc(Sc4ccccc4)cc23)cc1`
500 to 5000 nM

`Cc1c[nH]c2nccc(Oc3ccc4c(c3)CNC4)c12` ?
< 5 nM

// repeat for `Cc1c[nH]c2nccc(Oc3ccc(C[C@H](N)C(=O)NC4CCN(C)CC4)cc3F)c12` and report
< 3 nM

Here is the next molecule: `N[C@@H](Cc1ccc(Oc2ccnc3[nH]cc(-c4cnoc4)c23)cc1)C(=O)N1CCN(Cc2ccccc2)CC1`
< 3 nM

Ok, now `Nc1cc(-c2csc(NC(=O)Cc3ccc(F)cc3)n2)ccn1`
100 to 1000 nM

What do we get for `C[C@H](Nc1nc(-c2c[nH]c3ncc(Cl)cc23)ncc1F)C(=O)NCCF` ?
500 to 5000 nM
